Provenance of the data: a collection of fitness landscapes (doi:10.1126/science.1257360)

B1: PhoQ; a variant is named by its letters at X, in order, P23837 (parent)
chain: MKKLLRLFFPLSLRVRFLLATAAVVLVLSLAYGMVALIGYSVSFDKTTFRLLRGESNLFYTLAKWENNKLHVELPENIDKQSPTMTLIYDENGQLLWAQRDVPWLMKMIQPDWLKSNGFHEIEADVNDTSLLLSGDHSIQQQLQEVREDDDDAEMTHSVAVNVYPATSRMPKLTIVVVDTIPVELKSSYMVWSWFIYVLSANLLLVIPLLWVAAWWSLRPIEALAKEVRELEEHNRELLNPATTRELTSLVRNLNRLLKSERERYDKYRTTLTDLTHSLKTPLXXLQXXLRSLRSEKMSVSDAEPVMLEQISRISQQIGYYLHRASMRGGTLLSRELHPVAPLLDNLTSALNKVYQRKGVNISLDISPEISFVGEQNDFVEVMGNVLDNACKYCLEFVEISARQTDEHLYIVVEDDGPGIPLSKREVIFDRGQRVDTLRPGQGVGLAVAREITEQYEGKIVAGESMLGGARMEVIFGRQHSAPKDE

Variants of: B1
Experiment: enrichment ratio after two sorts for PhoP signalling (ratio (wild type AVST 3.29)); higher = more functional
Settings: with PhoP (E. coli)
In all, about 140,000 sequences were measured (“enrichment ratio after two sorts for PhoP signalling”: median about 0, highest 2% from about 11 on). The full list was thinned out, with the highest values kept by preference.
measure: enrichment ratio
Give your answer as a number; write no unit.

Field: example entries. Status: answers known.
[[record]]
variant_descriptor = "SAMV"
val = 14.1

[[record]]
variant_descriptor = "TTNV"
val = 7.65

[[record]]
variant_descriptor = "AVTF"
val = 11.4

[[record]]
variant_descriptor = "CSTF"
val = 15.8

[[record]]
variant_descriptor = "STMV"
val = 12.8

[[record]]
variant_descriptor = "ASTF"
val = 11.8

[[record]]
variant_descriptor = "AENS"
val = 16

[[record]]
variant_descriptor = "ATTF"
val = 18.8


Note: attention shifts to another entry.
query: Consider the variant AELH and give its measured enrichment ratio.
result: 11.9
